biological target: 重组NT抗原(自产，130410) (human) (UniProt P16860); assay: BLI, antibody captured on AMC sensor, antigen in solution
Overview of recorded pKd for various binders
Notebook: values listed as pKd are -log10 of the concentration (mol/L).

{"BINDER": "WT 1-1 (antibody, from another filing, V domains shown) VH: QVRLQESGPSQVKPAQTLSLTCAISGPSVTTYYIDWVRHTPGKPPEWLAQMTKDANAVHNPTIRSRLSITRDTSKSQVFLKLTGVTTEDTAVYYCVKGVIDWGPGLLVTVSS V domain: QAVLTQPSSVSRSLGQTVSITCSGSSDNVGPGDYINWFQLIPGSAPKTLIFAAYSRIRGVPDRFSGSRSGNTATLTINSLQAEDEADYYCGSANSRNYVWGSGTRLTVLS", "MEASUREMENT": 8.20}
{"BINDER": "WT 1-6 (antibody, from another filing, V domains shown) VH: QVRLQESGPSQVKPAQTLSLTCAISGPSITTYYVDWVRHTPGKPPEWLAQMTKDANAVHQPTIRSRLSITRDTSKSQVFLKLTGVTTEDTAVYYCVKGLIDWGPGLLVTVSS V domain: QAVLTQPSSVSRSLGQTVSITCSGSSDQVGPGDYLNWFQLIPGSAPKTLIFAASSRLRGVPDRFSGSRSGNTATLTINSLQAEDEADYYCGSANSRGGYVWGSGTRLTVLS", "MEASUREMENT": 8.28}

API: the following record is the query input.
QUERY: pKd lookup needed for WT 1-7 (antibody, from another filing, V domains shown) VH: QVRLQESGPSQVKPAQTLSLTCAISGPSVTTYYLDWVRHTPGKPPEWLAQMTKDANAVHQPTVRSRLSITRDTSKSQVFLKLTGVTTEDTAVYYCVKGVIDWGPGLLVTVSS V domain: QAVLTQPSSVSRSLGQTVSITCSGSSDNVGPGDYINWFQLIPGSAPKTLIFAAYSRLRGVPDRFSGSRSGNTATLTINSLQAEDEADYYCGSGNSRGGYVWGSGTRLTVLS , thanks.
RESULT: 8.17

The reported measurements were obtained from patent CN112707964A.
